Measurement parameters: USP SIF pH 6.8, 37 deg. C., 0 hours
Kindly supply the reported % Prodrug Remaining values for the records listed here.
Give the value in % but do not write % after it.

% Prodrug Remaining for COc1ccc2c3c1O[C@H]1C[C@@H](OC(=O)Nc4ccc(C(=O)O)cn4)C=C[C@@]31CCN(C)C2 is 100

% Prodrug Remaining for COc1ccc2c3c1O[C@H]1C[C@@H](OC(=O)N[C@@H](Cc4ccccc4)C(=O)O)C=C[C@@]31CCN(C)C2 [Galantamine phenylalanine carbamate] is 95.9

% Prodrug Remaining for COc1ccc2c3c1O[C@H]1C[C@@H](OC(=O)Nc4cccc(C(=O)O)c4)C=C[C@@]31CCN(C)C2 is 100

% Prodrug Remaining for COc1ccc2c3c1O[C@H]1C[C@@H](OC(=O)Nc4ccc(C(=O)O)cc4)C=C[C@@]31CCN(C)C2 is 100

% Prodrug Remaining for COc1ccc2c3c1O[C@H]1C[C@@H](OC(=O)NCc4ccc(C(=O)O)cc4)C=C[C@@]31CCN(C)C2 is 100

====

Tested system: human acetylcholine esterase (Homo sapiens)
Construct: host or cells: HEK-293 cells
Sequence (P22303 32-614): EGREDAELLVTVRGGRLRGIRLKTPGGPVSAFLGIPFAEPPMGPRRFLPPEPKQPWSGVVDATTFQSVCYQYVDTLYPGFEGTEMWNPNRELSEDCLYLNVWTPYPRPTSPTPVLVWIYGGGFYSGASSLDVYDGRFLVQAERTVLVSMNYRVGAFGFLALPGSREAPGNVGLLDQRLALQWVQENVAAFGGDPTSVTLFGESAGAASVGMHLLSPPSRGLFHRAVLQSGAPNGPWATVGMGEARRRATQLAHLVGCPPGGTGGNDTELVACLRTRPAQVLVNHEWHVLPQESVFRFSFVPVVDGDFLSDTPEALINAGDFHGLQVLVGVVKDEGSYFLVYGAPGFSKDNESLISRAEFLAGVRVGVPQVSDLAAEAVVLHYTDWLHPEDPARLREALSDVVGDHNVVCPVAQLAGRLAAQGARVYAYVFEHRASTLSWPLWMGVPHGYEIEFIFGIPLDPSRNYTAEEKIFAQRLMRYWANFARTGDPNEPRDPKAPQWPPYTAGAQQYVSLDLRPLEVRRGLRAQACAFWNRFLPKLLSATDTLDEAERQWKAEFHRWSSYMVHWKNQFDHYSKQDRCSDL
Experiment notes: Human acetylcholine esterase inhibition (human recombinant, HEK-293 cells; Ellman photometry)
Format: biochemical
Observable: IC50

IC50 for COc1ccc2c3c1O[C@H]1C[C@@H](OC(=O)CCCC(=O)Nc4ccc(C(=O)O)cc4)C=C[C@@]31CCN(C)C2 [Galantamine [glutaryl-PABA] ester] is > 100 µM

IC50 for COc1ccc2c3c1O[C@H]1C[C@@H](OC(=O)CCC(=O)N[C@H](C(=O)O)C(C)C)C=C[C@@]31CCN(C)C2.O=C(O)C(F)(F)F [Galantamine succinyl valine ester] is > 100 µM

====

Measurement parameters: USP SGF pH 1.2, 37 deg. C., 0 hours
Kindly supply the reported % Prodrug Remaining values for the records listed here.
Give the value in % but do not write % after it.

% Prodrug Remaining for COc1ccc2c3c1O[C@H]1C[C@@H](OC(=O)NCc4ccc(C(=O)O)cc4)C=C[C@@]31CCN(C)C2 is 100

% Prodrug Remaining for COc1ccc2c3c1O[C@H]1C[C@@H](OC(=O)N[C@@H](Cc4ccccc4)C(=O)O)C=C[C@@]31CCN(C)C2 [Galantamine phenylalanine carbamate] is 94.7

% Prodrug Remaining for COc1ccc2c3c1O[C@H]1C[C@@H](OC(=O)Nc4ccc(C(=O)O)cn4)C=C[C@@]31CCN(C)C2 is 100

% Prodrug Remaining for COc1ccc2c3c1O[C@H]1C[C@@H](OC(=O)Nc4cccc(C(=O)O)c4)C=C[C@@]31CCN(C)C2 is 100
